Data credit: patent US20200181101A1

# TARGET UNDER TEST: Lsp from E. coli (Escherichia coli, UniProt P00804)
# Construct: The full-length Lsp clone from E. coli (residues 1-164); His6 with enterokinase cleavage site (pET19b) (N); made in house; host or cells: E. coli Lemo21 (DE3), pET19b vector
# Sequence (P00804 whole entry, the tested form may be a part): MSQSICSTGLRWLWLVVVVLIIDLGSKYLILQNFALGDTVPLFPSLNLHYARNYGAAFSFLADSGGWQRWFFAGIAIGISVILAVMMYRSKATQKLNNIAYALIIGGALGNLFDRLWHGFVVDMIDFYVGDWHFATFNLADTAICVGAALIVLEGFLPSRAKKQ
# ASSAY: Lsp FRET activity assay, IC50 determination
# Assay type: biochemical
# MEASUREMENT CONTEXT: Table 5, E = 100 nM; read-out: IC50
# Procedure: […] […] 50 μM Lsp FRET substrate was subsequently added and the rate of substrate hydrolysis was measured by increase in fluorescence (excitation 355 nm, emission 495 nm) in 96-well plates on a PerkinElmer EnVision plate reader or Tecan Safire 2 microplate reader. Michaelis-Menten constants and […] were determined using GraphPad Prism software (GraphPad, Inc.).
RECORDED ENDPOINT: IC50 (nM)
Numbers only, in nM.

Count: 3. Required value per item: IC50.
1. CCC(CC)c1nnc(NC(=O)c2cc(Cl)c(OC3CCC(F)(F)CC3)cc2[N+](=O)[O-])s1
2. CCC(CC)c1nnc(NC(=O)c2cc(Cl)c(OC3CCC(C)(C)CC3)cc2[N+](=O)[O-])s1
3. CCC(CC)c1nnc(NC(=O)c2cc(Cl)c(Oc3ccc(NC(=O)OC(C)(C)C)cc3)cc2[N+](=O)[O-])s1

Result:
[580, 230, 640]

----------
# TARGET UNDER TEST: Lsp from E. coli (Escherichia coli, UniProt P00804)
# Construct: The full-length Lsp clone from E. coli (residues 1-164); His6 with enterokinase cleavage site (pET19b) (N); made in house; host or cells: E. coli Lemo21 (DE3), pET19b vector
# ASSAY: Lsp FRET activity assay, IC50 determination
# Assay type: biochemical
# MEASUREMENT CONTEXT: Table 5, [Lsp] = 20 nM; read-out: IC50
Give measured log10(IC50) for each item. Keep answers brief.
Reminder: these figures are log10 of reported IC50, in nM before transformation.

Before answering, review these 5 worked examples.
>  <COMPOUND>
CCC(CC)c1nnc(NC(=O)c2cc(Cl)c(OC3CCCCC3)cc2[N+](=O)[O-])s1 [Sk056-29]

>  <log10(IC50)>
1.83

$$$$
>  <COMPOUND>
CCC(CC)c1nnc(NC(=O)c2cc(OC)c(OCc3ccccc3)cc2[N+](=O)[O-])s1 [Sk054-82-3]

>  <log10(IC50)>
3.46

$$$$
>  <COMPOUND>
CCC(CC)c1nnc(NC(=O)c2cc(Cl)c(Oc3ccccc3)cc2[N+](=O)[O-])s1 [Sk056-22-2]

>  <log10(IC50)>
2.28

$$$$
>  <COMPOUND>
CCC(CC)c1nnc(NC(=O)c2ccc(OC3CCCC3)cc2[N+](=O)[O-])s1 [Sk054-116-1]

>  <log10(IC50)>
2.60

$$$$
>  <COMPOUND>
CCC(CC)c1nnc(NC(=O)c2cc(OC)c(OC3CCCC3)cc2[N+](=O)[O-])s1 [Sk052-145-2]

>  <log10(IC50)>
1.86

$$$$

Count: 3. Required value per item: log10(IC50).
1. CCC(CC)c1nnc(NC(=O)c2cc(Cl)c(OC3CCCC3)cc2[N+](=O)[O-])s1 [Sk054-116-2]
2. CCC(CC)c1nnc(NC(=O)c2cc(Cl)c(NC3CCCC3)cc2[N+](=O)[O-])s1 [Sk056-16-1]
3. CCC(CC)c1nnc(NC(=O)c2cc(Cl)c(SC3CCCC3)cc2[N+](=O)[O-])s1 [Sk056-22-1]

Result:
[2.04, 2.23, 1.30]

----------
Give measured IC50 for each item. Keep answers brief.
# TARGET UNDER TEST: Lsp from E. coli (Escherichia coli)
# Construct: The full-length Lsp clone from E. coli (residues 1-164); His6 with enterokinase cleavage site (pET19b) (N); made in house; host or cells: E. coli Lemo21 (DE3), pET19b vector
# ASSAY: Lsp FRET activity assay, IC50 determination
# Assay type: biochemical
# MEASUREMENT CONTEXT: Table 4; read-out: IC50
Give bare numbers, in µM.

Before answering, review these 4 worked examples.
>  <MOLECULE>
CCC(CC)c1nnc(NC(=O)c2cc(OC)ccc2[N+](=O)[O-])s1 [Sk052-146-1]

>  <UNIT INFO>
µM

>  <IC50>
3.6

$$$$
>  <MOLECULE>
CCC(CC)c1nnc(NC(=O)c2ccccc2[N+](=O)[O-])s1 [Sk054-91-1]

>  <UNIT INFO>
µM

>  <IC50>
11

$$$$
>  <MOLECULE>
CCC(CC)c1nnc(NC(=O)c2ccc(C(F)(F)F)cc2[N+](=O)[O-])s1 [Z123635394]

>  <UNIT INFO>
µM

>  <IC50>
9.3

$$$$
>  <MOLECULE>
CCC(CC)c1nnc(NC(=O)c2cc(OS(=O)(=O)On3nnc4ncccc43)ccc2[N+](=O)[O-])s1 [Sk054-141-1]

>  <UNIT INFO>
µM

>  <IC50>
120

$$$$

Count: 4. Required value per item: IC50.
1. CCC(CC)c1nnc(NC(=O)c2ccc(F)cc2[N+](=O)[O-])s1 [Sk054-91-3]
2. CCC(CC)c1nnc(NC(=O)c2c(Cl)cccc2[N+](=O)[O-])s1 [Sk056-82-2]
3. CCC(CC)c1nnc(NC(=O)c2ccccc2C(=O)OC)s1 [Sk056-13-2]
4. CCC(CC)c1nnc(NC(=O)c2ccc(NC(C)=O)cc2[N+](=O)[O-])s1 [Sk054-112-2]

Result:
7.2
260
12
160

----------
# TARGET UNDER TEST: Lsp from E. coli (Escherichia coli)
# Construct: The full-length Lsp clone from E. coli (residues 1-164); His6 with enterokinase cleavage site (pET19b) (N); made in house; host or cells: E. coli Lemo21 (DE3), pET19b vector
# ASSAY: Lsp FRET activity assay, IC50 determination
# Format: biochemical
# MEASUREMENT CONTEXT: Table 2, variation of R3; read-out: IC50
RECORDED ENDPOINT: log10 of IC50 (log10 of the value in µM)
Reminder: these figures are log10 of reported IC50, in µM before transformation.

Before answering, review these 8 worked examples.
>  <COMPOUND>
COc1cc(C(=O)Nc2nnc(C3CC3)s2)c([N+](=O)[O-])cc1OC

>  <TARGET UNDER TEST>
Lsp from E. coli (Escherichia coli)

>  <log10 of IC50>
2.32

$$$$
>  <COMPOUND>
CCC(C)c1nnc(NC(=O)c2cc(OC)c(OC)cc2[N+](=O)[O-])s1 (stereo not shown)

>  <TARGET UNDER TEST>
Lsp from E. coli (Escherichia coli)

>  <log10 of IC50>
0.94

$$$$
>  <COMPOUND>
COc1cc(C(=O)Nc2nnc(C(C)(C)C)s2)c([N+](=O)[O-])cc1OC

>  <TARGET UNDER TEST>
Lsp from E. coli (Escherichia coli)

>  <log10 of IC50>
1.56

$$$$
>  <COMPOUND>
COc1cc(C(=O)Nc2nnc(C(C)C)s2)c([N+](=O)[O-])cc1OC

>  <TARGET UNDER TEST>
Lsp from E. coli (Escherichia coli)

>  <log10 of IC50>
1.64

$$$$
>  <COMPOUND>
COc1cc(C(=O)Nc2nnc(CCc3ccccc3)s2)c([N+](=O)[O-])cc1OC

>  <TARGET UNDER TEST>
Lsp from E. coli (Escherichia coli)

>  <log10 of IC50>
1.30

$$$$
>  <COMPOUND>
CCC(CC)c1nnc(NC(=O)c2cc(OC)c(OC)cc2[N+](=O)[O-])s1

>  <TARGET UNDER TEST>
Lsp from E. coli (Escherichia coli)

>  <log10 of IC50>
0.62

$$$$
>  <COMPOUND>
CCCCC(CC)c1nnc(NC(=O)c2cc(OC)c(OC)cc2[N+](=O)[O-])s1 (stereo not shown)

>  <TARGET UNDER TEST>
Lsp from E. coli (Escherichia coli)

>  <log10 of IC50>
0.40

$$$$
>  <COMPOUND>
CCCCCc1nnc(NC(=O)c2cc(OC)c(OC)cc2[N+](=O)[O-])s1

>  <TARGET UNDER TEST>
Lsp from E. coli (Escherichia coli)

>  <log10 of IC50>
1.41

$$$$

log10 of IC50 in this record for "CCCCc1nnc(NC(=O)c2cc(OC)c(OC)cc2[N+](=O)[O-])s1" : 1.46

----------
# TARGET UNDER TEST: Lsp from E. coli (Escherichia coli)
# Construct: The full-length Lsp clone from E. coli (residues 1-164); His6 with enterokinase cleavage site (pET19b) (N); made in house; host or cells: E. coli Lemo21 (DE3), pET19b vector
# ASSAY: Lsp FRET activity assay, IC50 determination
# Assay type: biochemical
# MEASUREMENT CONTEXT: Table 7, linker variation, E = 100 nM; read-out: IC50
Give measured IC50 for each item. Keep answers brief.
Give bare numbers, in nM.

Before answering, review these 2 worked examples.
>  <MOLECULE>
CCC(CC)c1nnc(NC(=O)c2cc(Cl)c(OCCCNC(=O)OC(C)(C)C)cc2[N+](=O)[O-])s1 [Sk061-80-1]

>  <TARGET UNDER TEST>
Lsp from E. coli (Escherichia coli)

>  <UNIT INFO>
nM

>  <IC50>
1700

$$$$
>  <MOLECULE>
CCC(CC)c1nnc(NC(=O)c2cc(Cl)c(OCCCCCCNC(=O)OC(C)(C)C)cc2[N+](=O)[O-])s1 [Sk061-54]

>  <TARGET UNDER TEST>
Lsp from E. coli (Escherichia coli)

>  <UNIT INFO>
nM

>  <IC50>
2300

$$$$

In the following, a different molecule is considered.
IC50 in this record for CCC(CC)c1nnc(NC(=O)c2cc(Cl)c(OC3CCN(C(=O)OC(C)(C)C)CC3)cc2[N+](=O)[O-])s1 [Sk061-80-4] : 1100
